experiment: physchem
conditionInfo: aqueous with cosolvent or surfactant or cyclodextrin, aqueous capsaicin solubility level, 2 ml capsaicin/PS 80 concentrate added to 98 grams of ~70° C. water, cooled to room temperature
measuredParameter: solubility (µg/mL)
# value in µg/mL; strip the unit string

Name the recorded solubility of the item COc1cc(CNC(=O)CCCC/C=C/C(C)C)ccc1O [Capsaicin] in your answer.
4000
